# Subject of test: human CMKLR1 (Homo sapiens, UniProt Q99788)
# Construct: host or cells: HEK293A (Invitrogen), stably expressing human Gα15
# Sequence (Q99788 whole entry): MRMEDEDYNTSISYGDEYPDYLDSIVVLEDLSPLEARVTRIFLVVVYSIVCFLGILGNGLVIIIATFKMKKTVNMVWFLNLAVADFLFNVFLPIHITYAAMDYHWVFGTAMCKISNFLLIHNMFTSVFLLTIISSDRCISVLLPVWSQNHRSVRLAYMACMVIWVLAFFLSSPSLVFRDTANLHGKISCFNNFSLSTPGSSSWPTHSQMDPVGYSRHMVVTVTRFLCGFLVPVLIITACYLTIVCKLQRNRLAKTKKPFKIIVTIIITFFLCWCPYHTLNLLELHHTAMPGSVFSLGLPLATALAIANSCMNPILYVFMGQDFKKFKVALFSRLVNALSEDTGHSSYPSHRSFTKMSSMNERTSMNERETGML
# Experiment description: Ca2+ mobilization (CellLux imaging) agonist assay in HEK293A cells expressing CMKLR1 and Gα15
# Assay type: cell-based
# Condition notes: Ca2+ mobilization, CMKLR1; decimal comma
Square brackets hold non-standard residues; d marks the D form. Peptide text beside a SMILES is read from it.
Parameter measured: max response

NC(=O)CC[C@H](NC(=O)CNC(=O)[C@@H]1CCCN1C(=O)[C@H](Cc1ccccc1)NC(=O)[C@H](N)Cc1ccccc1)C(=O)N[C@@H](Cc1c[nH]c2ccccc12)C(=O)NCC(=O)N[C@@H](Cc1ccccc1)C(=O)N[C@@H](CO)C(N)=O [compound 12] (H-[dF]FPGQWGFS-NH2; N-terminus assumed) : 1,56 DF/F0
CC(C)C[C@@H](NC(=O)[C@H](Cc1c[nH]cn1)NC(=O)[C@H](N)CO)C(=O)NCC(=O)N[C@@H](CCC(N)=O)C(=O)N[C@@H](Cc1ccc(O)cc1)C(=O)N[C@@H](C)C(=O)N[C@@H](Cc1ccccc1)C(=O)N[C@H](Cc1ccccc1)C(=O)O [compound 140] (H-[dS]H[dL]GQYAF[dF]-OH; N-terminus assumed) : 1,49 DF/F0

Task: Please supply the value of reported max response for the item CC(C)[C@H](NC(=O)[C@@H](N)Cc1ccc(O)cc1)C(=O)N1CCC[C@H]1C(=O)NCC(=O)N[C@@H](CCC(N)=O)C(=O)N[C@@H](Cc1ccccc1)C(=O)N[C@@H](C)C(=O)N[C@@H](Cc1ccccc1)C(=O)N[C@H](CO)C(=O)O [compound 90] (H-YVPGQFAF[dS]-OH; N-terminus assumed)
Output: 1,81 DF/F0

---

# Experiment description: In vitro peptide stability in human serum (RP-HPLC)
# Condition notes: human, human serum, 25% (v/v) in RPMI
Square brackets hold non-standard residues; d marks the D form. Peptide text beside a SMILES is read from it.
half-life at 50 µg/mL by entry:
Reply with just the number (in min).

Previously resolved entries follow.
CC(C)[C@H](N)C(=O)N1CCC[C@H]1C(=O)NCC(=O)N[C@@H](CCC(N)=O)C(=O)N[C@@H](Cc1ccc(O)cc1)C(=O)N[C@@H](C)C(=O)N[C@@H](Cc1ccccc1)C(=O)N[C@H](CO)C(=O)N[C@H](CO)C(=O)O [compound 99] (H-VPGQYAF[dS][dS]-OH; N-terminus assumed) : 43
CC(C)C[C@H](NC(=O)[C@@H](N)Cc1ccc(O)cc1)C(=O)N1CCC[C@H]1C(=O)N1CCC[C@@H]1C(=O)N1CCC[C@H]1C(=O)N[C@@H](Cc1ccc(O)cc1)C(=O)N[C@@H](C)C(=O)N[C@@H](Cc1ccccc1)C(=O)N[C@H](Cc1ccccc1)C(=O)O [compound 130] (H-YLP[dP]PYAF[dF]-OH; N-terminus assumed) : 215
CC(C)C[C@H](NC(=O)[C@@H](N)Cc1ccc(O)cc1)C(=O)N1CCC[C@H]1C(=O)NCC(=O)N[C@@H](CCC(N)=O)C(=O)N[C@@H](Cc1ccc(O)cc1)C(=O)N[C@H](Cc1c[nH]c2ccccc12)C(=O)N[C@@H](Cc1ccccc1)C(=O)N[C@H](Cc1ccccc1)C(=O)O [YLPGQYwFf] (H-YLPGQY[dW]F[dF]-OH; N-terminus assumed) : 159
CC(C)C[C@H](NC(=O)[C@H](Cc1ccccc1)NC(=O)[C@H](CCC(N)=O)NC(=O)CNC(=O)[C@H]1CCCN1C(=O)[C@@H](CC(C)C)NC(=O)[C@@H](N)Cc1ccc(O)cc1)C(=O)N[C@@H](Cc1ccccc1)C(=O)N[C@@H](CO)C(=O)O [compound 75] (H-Y[dL][dP]GQFLFS-OH; N-terminus assumed) : 49
CC(C)C[C@H](NC(=O)[C@@H](N)Cc1ccc(O)cc1)C(=O)N1CCC[C@H]1C(=O)NCC(=O)N[C@@H](CCC(N)=O)C(=O)N[C@@H](Cc1ccccc1)C(=O)N[C@H](Cc1c[nH]c2ccccc12)C(=O)N[C@@H](Cc1ccccc1)C(=O)N[C@@H](CO)C(=O)O [compound 41] (H-YLPGQF[dW]FS-OH; N-terminus assumed) : 45

Task: Please list half-life at 50 µg/mL recorded for the compound CC(C)[C@H](NC(=O)[C@@H](Cc1ccc(O)cc1)NC(=O)[C@H](CO)NC(=O)[C@@H]1CCCN1)C(=O)N1CCC[C@H]1C(=O)NCC(=O)N[C@@H](CCC(N)=O)C(=O)N[C@@H](Cc1ccc(O)cc1)C(=O)N[C@@H](C)C(=O)O [compound 107] (H-PS[dY]VPGQYA-OH; N-terminus assumed)
Output: 362

---

# Experiment description: In vitro peptide stability in human serum (RP-HPLC)
# Condition notes: human, human serum, 25% (v/v) in RPMI
Ends that are not written are not given here.
Parameter measured: half-life at 50 µg/mL (min)

Examples with answers:
YFPGQFAFG-OH : 13
YLPGQGAFP-OH [compound 49] : 17
FLPGALGFF-OH [compound 60] : 19
PLPGQFQFK-OH [compound 70] : 27
LLPGLFLKL-OH [compound 74] : 39
YLPGYLPGH-OH [compound 77] : 17

A = FLPGQFLPG-OH [compound 63]
B = YFLGQFAFK-OH [compound 76]
Task: Problem: Given the entries A and B , determine which has the lower reported half-life at 50 µg/mL. I would appreciate it if you answered with the label of your choice.
Output: B
(B: 16 min, A: 46 min)

P = YLPGQFAFL-OH [compound 39]
Q = PGPGQFAFF-OH [compound 59]
R = FLFGFQFAY-OH [compound 109]
S = YPPGQYAFF-OH [compound 68]
Task: Thanks in advance: please rank these 4 entries by half-life at 50 µg/mL, highest to lowest. Return the labels ranked in the requested order, please.
Output: Q, S, P, R
(Q: 80 min, S: 54 min, P: 24 min, R: 16 min)

P = FLPPQFAFF-OH [compound 73]
Q = PLPGQQAFF-OH [compound 79]
Task: Could you kindly indicate whether P or Q has the higher half-life at 50 µg/mL value? Label of pick, please.
Output: Q
(Q: 84 min, P: 20 min)

P = YLPGQGAFK-OH [compound 69]
Q = YLPGQFQFS-OH [compound 44]
Task: // returns P or Q , whichever has the lower half-life at 50 µg/mL Please identify the chosen entry by its label.
Output: Q

a = YLPGQYAFY-OH [compound 48]
b = YLPGQYAFL-OH
Task: Returns: the label, a or b , whose recorded half-life at 50 µg/mL is the lower number. Respond with the label that goes with your answer.
Output: a
(a: 16 min, b: 27 min)

---

# Experiment description: In vitro peptide stability in human serum (RP-HPLC)
# Condition notes: metabolic stability in human serum
Square brackets hold non-standard residues; d marks the D form. Peptide text beside a SMILES is read from it.
Reported t1/2 is given for each of the following compounds.
Return type: number; implicit unit min.

C[C@H](NC(=O)[C@H](Cc1ccc(O)cc1)NC(=O)[C@H](CCC(N)=O)NC(=O)CNC(=O)[C@@H]1CCCN1C(=O)[C@H](CCCNC(=N)N)NC(=O)[C@@H](N)Cc1ccc(O)cc1)C(=O)N[C@@H](Cc1ccccc1)C(=O)N[C@H](CO)C(=O)O [compound 84] (H-YRPGQYAF[dS]-OH; N-terminus assumed) : 21

Note: attention shifts to another entry.
Task: Please indicate t1/2 recorded for CC(C)C[C@H](NC(=O)[C@@H](N)Cc1ccc(O)cc1)C(=O)N1CCC[C@H]1C(=O)N[C@H](C)C(=O)N[C@@H](CCC(N)=O)C(=O)N[C@@H](Cc1ccc(O)cc1)C(=O)N[C@@H](C)C(=O)N[C@@H](Cc1ccccc1)C(=O)N[C@H](CO)C(=O)O [compound 124] (H-YLP[dA]QYAF[dS]-OH; N-terminus assumed)
Output: 110

---

Reported EC50 values are given for each entry in this list.
# Subject of test: human CMKLR1 (Homo sapiens)
# Construct: host or cells: HEK293A (Invitrogen), stably expressing human Gα15
# Experiment description: Ca2+ mobilization (CellLux imaging) agonist assay in HEK293A cells expressing CMKLR1 and Gα15
# Type: cell-based
# Condition notes: Ca2+ mobilization, CMKLR1; decimal comma; NR where no EC50 is given; read-out: EC50
Square brackets hold non-standard residues; d marks the D form. Peptide text beside a SMILES is read from it.
Just the number please, in nM, no unit attached.

C[C@H](NC(=O)[C@H](Cc1ccc(O)cc1)NC(=O)[C@@H](CCC(N)=O)NC(=O)CNC(=O)[C@@H]1CCCN1C(=O)[C@@H](Cc1ccc(O)cc1)NC(=O)[C@@H](N)Cc1ccc(O)cc1)C(=O)N[C@@H](Cc1ccc(O)cc1)C(=O)N[C@@H](CO)C(N)=O [compound 19] (H-Y[dY]PG[dQ]YAYS-NH2; N-terminus assumed) : 9550
CC(C)C[C@H](NC(=O)[C@H](Cc1ccc(O)cc1)NC(=O)[C@H](CCC(N)=O)NC(=O)[C@@H](Cc1ccccc1)NC(=O)[C@@H](CC(=O)O)NC(=O)[C@@H]1CCCN1C(=O)[C@H](CC(C)C)NC(=O)[C@@H](N)Cc1ccc(O)cc1)C(=O)N1CCC[C@H]1C(=O)O [compound 148] (H-YLP[dD][dF]QYLP-OH; N-terminus assumed) : 207

In the following, a different compound is considered.
Task: Tell me its EC50 given CC(C)C[C@H](NC(=O)[C@H](N)Cc1ccc(O)cc1)C(=O)N1CCC[C@H]1C(=O)NCC(=O)N[C@@H](CCC(N)=O)C(=O)N[C@@H](Cc1ccc(O)cc1)C(=O)N[C@@H](C)C(=O)N[C@@H](Cc1ccccc1)C(=O)N[C@@H](CO)C(=O)O [compound 82] (H-[dY]LPGQYAFS-OH; N-terminus assumed) as the entry.
Output: 3.62
